System: Bacillus subtilis PCI219 | Read-out: MIC
One number for each entry, in µg/mL.

Mol smiles: CN[C@@H]1[C@@H](O)[C@@H](O[C@H]2[C@H](N)C[C@H](N)[C@@H](O[C@H]3O[C@H]([C@@H](C)N)CC[C@H]3N)C2(F)F)OC[C@]1(C)O
Quantitative readout: 0.2

Now, please, on to the next molecule.
Test system Bacillus subtilis PCI219; read-out MIC; what value for `NCC[C@H](O)C(=O)N[C@@H]1C[C@H](N)[C@@H](O[C@H]2O[C@H](CN)CC[C@H]2N)C(F)(F)[C@H]1O[C@H]1O[C@H](CO)[C@@H](O)[C@H](N)[C@H]1O` ? 0.39
